Tested on: Rattus norvegicus
Assay: Anti-inflammatory activity in rat model of acute inflammation assessed as inhibition of carrageenan-induced paw oedema dosed at equimolar oral dose relative to 10 mg/kg, po indomethacin dosed 1 hr before carrageenan injection and measured 3 hrs after carrageenan injection
Type: functional
Give measured inhibition (INH) for each item. Keep answers brief.
One number for each entry, in %.

Record inhibition (INH) for all entries; do not skip any.
1. Nc1ccc(-c2nnc(Cn3nc(-c4ccccc4)c(-c4ccccc4)nc3=O)o2)cc1
2. O=c1nc(-c2ccccc2)c(-c2ccccc2)nn1Cc1nnc(-c2ccc(O)cc2O)o1
3. COc1ccc(-c2nnc(Cn3nc(-c4ccccc4)c(-c4ccccc4)nc3=O)o2)cc1

1: 51.89; 2: 53.27; 3: 48.11

====

Exercise: state measured Activity for each of the compounds provided.
Test system: Rattus norvegicus
Test: Anti-inflammatory activity in rat model of sub-chronic inflammation assessed as inhibition of cotton pellet-induced granuloma by measuring weight of granulation dosed once daily at equimolar oral dose relative to 10 mg/kg, po indomethacin for seven consecutive days from day of cotton pellet insertion (94.13 +/- 8.1 mg)
Format: functional
One number for each entry, in mg.

Sample answers from the record:
COc1ccc(-c2nnc(Cn3nc(-c4ccccc4)c(-c4ccccc4)nc3=O)o2)cc1 = 58.51
Nc1ccc(-c2nnc(Cn3nc(-c4ccccc4)c(-c4ccccc4)nc3=O)o2)cc1 = 56.29
O=c1nc(-c2ccccc2)c(-c2ccccc2)nn1Cc1nnc(-c2ccc(O)cc2O)o1 = 56.11
O=c1nc(-c2ccccc2)c(-c2ccccc2)nn1Cc1nnc(-c2ccc(Cl)cc2)o1 = 57.8

Look up Activity with Rattus norvegicus for this compound: O=c1nc(-c2ccccc2)c(-c2ccccc2)nn1Cc1nnc(-c2ccc([N+](=O)[O-])cc2)o1
58.07

====

Tested on: Rattus norvegicus
Assay: Toxicity in healthy albino rat assessed as induction of changes in autonomic or behavioural responses up to 500 mg/kg, po
Assay type: organism-based
Settings: in vivo
recorded endpoint: Activity

O=c1nc(-c2ccccc2)c(-c2ccccc2)nn1Cc1nnc(-c2ccc(Cl)cc2Cl)o1 = Non-toxic
O=c1nc(-c2ccccc2)c(-c2ccccc2)nn1Cc1nnc(-c2ccc(Cl)cc2)o1 = Non-toxic
COc1ccc(-c2nnc(Cn3nc(-c4ccccc4)c(-c4ccccc4)nc3=O)o2)cc1 = Non-toxic

====

Test system: Rattus norvegicus
Experiment: Toxicity in healthy albino rat assessed as induction of lethargy up to 500 mg/kg, po
Format: organism-based
Settings: in vivo
recorded endpoint: Activity

COc1ccc(-c2nnc(Cn3nc(-c4ccccc4)c(-c4ccccc4)nc3=O)o2)cc1 = Non-toxic
O=c1nc(-c2ccccc2)c(-c2ccccc2)nn1Cc1nnc(-c2ccccc2[N+](=O)[O-])o1 = Non-toxic
O=c1nc(-c2ccccc2)c(-c2ccccc2)nn1Cc1nnc(-c2ccc(Cl)cc2)o1 = Non-toxic

====

Tested on: Rattus norvegicus
Assay: Anti-inflammatory activity in rat model of acute inflammation assessed as inhibition of carrageenan-induced paw oedema dosed at equimolar oral dose relative to 10 mg/kg, po indomethacin dosed 1 hr before carrageenan injection and measured 3 hrs after carrageenan injection
Assay type: functional
recorded endpoint: inhibition (INH) (%)
One number for each entry, in %.

Recorded inhibition (INH), per entry:
O=c1nc(-c2ccccc2)c(-c2ccccc2)nn1Cc1nnc(-c2ccc(Cl)cc2Cl)o1 = 31.23
O=c1nc(-c2ccccc2)c(-c2ccccc2)nn1Cc1nnc(-c2ccc([N+](=O)[O-])cc2)o1 = 49.6
O=c1nc(-c2ccccc2)c(-c2ccccc2)nn1Cc1nnc(Oc2ccc(Cl)cc2Cl)o1 = 42.02
O=c1nc(-c2ccccc2)c(-c2ccccc2)nn1Cc1nnc(-c2ccccc2[N+](=O)[O-])o1 = 36.39

Let's switch to this molecule now.
Request - read-out inhibition (INH) | tested on Rattus norvegicus | molecule O=c1nc(-c2ccccc2)c(-c2ccccc2)nn1Cc1nnc(-c2ccc(Cl)cc2)o1
51.32

====

Assay: In-vitro anti-inflammatory activity assessed as inhibition of denaturation of bovine serum albumin at equimolar dose relative to 10 mg indomethacin
Assay type: functional
Consider the following compounds; for each one, report its inhibition.
Numbers only, in %.

Here's what some known entries look like.
Nc1ccc(-c2nnc(Cn3nc(-c4ccccc4)c(-c4ccccc4)nc3=O)o2)cc1 = 80.3
O=c1nc(-c2ccccc2)c(-c2ccccc2)nn1Cc1nnc(-c2ccc(Cl)cc2)o1 = 78.2
O=c1nc(-c2ccccc2)c(-c2ccccc2)nn1Cc1nnc(-c2ccccc2)o1 = 50.3

Give me inhibition for each of these compounds, listed below.
1. O=c1nc(-c2ccccc2)c(-c2ccccc2)nn1Cc1nnc(-c2cccc(Cl)c2)o1
2. O=c1nc(-c2ccccc2)c(-c2ccccc2)nn1Cc1nnc(-c2ccc(Cl)cc2Cl)o1

64.4
67.7

====

Target: Prostaglandin G/H synthase 1 (Ovis aries)
Sequence (P05979 whole entry): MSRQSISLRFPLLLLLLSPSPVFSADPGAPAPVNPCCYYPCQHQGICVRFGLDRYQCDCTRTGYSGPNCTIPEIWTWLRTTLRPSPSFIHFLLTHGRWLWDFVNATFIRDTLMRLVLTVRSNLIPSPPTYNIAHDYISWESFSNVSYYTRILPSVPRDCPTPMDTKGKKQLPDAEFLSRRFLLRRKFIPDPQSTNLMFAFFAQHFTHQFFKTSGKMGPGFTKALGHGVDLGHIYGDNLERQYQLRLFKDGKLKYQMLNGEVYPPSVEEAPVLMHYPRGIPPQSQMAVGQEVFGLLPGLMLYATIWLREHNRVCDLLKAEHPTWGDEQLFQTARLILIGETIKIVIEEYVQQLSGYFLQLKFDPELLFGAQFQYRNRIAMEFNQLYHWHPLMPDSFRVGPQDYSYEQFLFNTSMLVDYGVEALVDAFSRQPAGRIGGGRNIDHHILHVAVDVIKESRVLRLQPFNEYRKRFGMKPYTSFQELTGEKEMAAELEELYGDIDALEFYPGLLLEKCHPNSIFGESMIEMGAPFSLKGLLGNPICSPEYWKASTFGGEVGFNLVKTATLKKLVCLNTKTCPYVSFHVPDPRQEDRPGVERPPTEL
recorded endpoint: pIC50
Numbers only, as −log10 of the molar value.

O=c1nc(-c2ccccc2)c(-c2ccccc2)nn1Cc1nnc(-c2ccc([N+](=O)[O-])cc2)o1 = 4.35
O=c1nc(-c2ccccc2)c(-c2ccccc2)nn1Cc1nnc(-c2ccc(O)cc2O)o1 = 4.36

Hey, can you go through the list below and give me pIC50 for every item?
1. COc1ccc(-c2nnc(Cn3nc(-c4ccccc4)c(-c4ccccc4)nc3=O)o2)cc1
2. Nc1ccc(-c2nnc(Cn3nc(-c4ccccc4)c(-c4ccccc4)nc3=O)o2)cc1
3. O=c1nc(-c2ccccc2)c(-c2ccccc2)nn1Cc1nnc(-c2ccc(Cl)cc2)o1

4.35
4.36
4.35

====

Tested on: Rattus norvegicus
Test: Hepato-toxicity in rat Freund's adjuvant induced arthritis model of chronic inflammation assessed as assessed as alkaline phosphatase level at equimolar oral dose relative to 10 mg/kg, po indomethacin dosed after 14 days from day of adjuvant injection until day 21 and measured on day 21 (reference value: 17.82 +/- 1.2 U)
Assay type: organism-based
Conditions: in vivo, 336 h
recorded endpoint: Activity (U)
Numbers only, in U.

Completed entries (count: 4):
COc1ccc(-c2nnc(Cn3nc(-c4ccccc4)c(-c4ccccc4)nc3=O)o2)cc1 = 22.11
O=c1nc(-c2ccccc2)c(-c2ccccc2)nn1Cc1nnc(-c2ccc(Cl)cc2)o1 = 20.28
O=c1nc(-c2ccccc2)c(-c2ccccc2)nn1Cc1nnc(-c2ccc([N+](=O)[O-])cc2)o1 = 19.92
O=c1nc(-c2ccccc2)c(-c2ccccc2)nn1Cc1nnc(-c2ccc(O)cc2O)o1 = 19.56

Continue with the next molecule.
May I ask what Activity has been recorded for Nc1ccc(-c2nnc(Cn3nc(-c4ccccc4)c(-c4ccccc4)nc3=O)o2)cc1 ?
20.64

====

Test system: Mus musculus
Test: Analgesic activity in Swiss albino mouse assessed as reduction in formalin-induced paw licking by measuring time spent on licking during phase-1 at equimolar oral dose relative to 10 mg/kg, po indomethacin dosed 1 hr before formalin challenge and measured 30 mins after formalin injection
Format: functional
recorded endpoint: inhibition (INH) (%)
Answers are plain numbers, in %.

Reference set, count: 2
O=c1nc(-c2ccccc2)c(-c2ccccc2)nn1Cc1nnc(-c2ccc([N+](=O)[O-])cc2)o1 = 13.68
COc1ccc(-c2nnc(Cn3nc(-c4ccccc4)c(-c4ccccc4)nc3=O)o2)cc1 = 10.59

Batch of 3 molecules: report inhibition (INH) for each.
1. O=c1nc(-c2ccccc2)c(-c2ccccc2)nn1Cc1nnc(-c2ccc(O)cc2O)o1
2. Nc1ccc(-c2nnc(Cn3nc(-c4ccccc4)c(-c4ccccc4)nc3=O)o2)cc1
3. O=c1nc(-c2ccccc2)c(-c2ccccc2)nn1Cc1nnc(-c2ccc(Cl)cc2)o1

1. 10.73
2. 12.45
3. 12.11

====

System: Rattus norvegicus
Test: Anti-inflammatory activity in rat Freund's adjuvant induced arthritis model of chronic inflammation assessed as inhibition of right hind paw swelling at equimolar oral dose relative to 10 mg/kg, po indomethacin dosed after 14 days from day of adjuvant injection until day 21 and measured on day 12
Assay type: functional
Exercise: for every item that follows, state its recorded inhibition (INH).
Numbers only, in %.

For every item in the list below, what is its measured inhibition (INH)?
1. O=c1nc(-c2ccccc2)c(-c2ccccc2)nn1Cc1nnc(-c2ccc([N+](=O)[O-])cc2)o1
2. COc1ccc(-c2nnc(Cn3nc(-c4ccccc4)c(-c4ccccc4)nc3=O)o2)cc1
3. O=c1nc(-c2ccccc2)c(-c2ccccc2)nn1Cc1nnc(-c2ccc(O)cc2O)o1
4. O=c1nc(-c2ccccc2)c(-c2ccccc2)nn1Cc1nnc(-c2ccc(Cl)cc2)o1
5. Nc1ccc(-c2nnc(Cn3nc(-c4ccccc4)c(-c4ccccc4)nc3=O)o2)cc1

[41.78, 41.05, 43.97, 43.36, 45.8]
